- test.details: logP determined by HPLC
- measurement.parameters: single value (single isomer)
measure: chromatographic logP

For orientation, consider the following solved cases.
| compound | chromatographic logP |
| --- | --- |
| CCON=C(C(=O)NC(C)Cc1ccc(OCC)c(OC)c1)c1ccc2c(c1)CCCC2 (stereo not drawn) [Example 12] | 4.41 |
| CCO/N=C(\C(=O)NC(C)Cc1ccc(OCC)c(OC)c1)c1ccc(CC)cc1 (stereo not drawn) [Example 19] | 4.05 |
| CCO/N=C(/C(=O)NC(C)Cc1ccc(OCC)c(OC)c1)c1ccc2c(c1)CCCC2 (stereo not drawn) [Example 13] | 4.07 |

Entry under review: CCO/N=C(/C(=O)NC(C)Cc1ccc(OCC)c(OC)c1)c1ccc(Br)cc1 (stereo not drawn) [Example 20] . Reported chromatographic logP? 3.69

Reported chromatographic logP, compound CCO/N=C(\C(=O)NC(C)Cc1ccc(OCC)c(OC)c1)c1ccc2c(c1)CCC2 (stereo not drawn) [Example 17] : ____ 4.1

Which value of chromatographic logP has been reported for CCO/N=C(/C(=O)NC(C)Cc1ccc(OCC)c(OC)c1)c1ccc2c(c1)CCC2 (stereo not drawn) [Example 18] in the records? 3.79

* * *

- test.details: logP determined by HPLC
- measurement.parameters: E/Z mixture, (E position)
measure: chromatographic logP
When you answer, write just the number.

These recorded examples may help you get a feel for the data.
| compound | measure | test.result |
| --- | --- | --- |
| CCON=C(C(=O)NC(C)Cc1ccc(OCC)c(OC)c1)c1ccc2c(c1)CCCC2 (stereo not drawn) | chromatographic logP | 4.07 |
| CCON=C(C(=O)NC(C)Cc1ccc(OCC)c(OC)c1)c1ccc2c(c1)CCC2 (stereo not drawn) | chromatographic logP | 3.79 |

Then there is this compound:
For CCOc1ccc(CC(C)NC(=O)C(=NOC)c2ccc3c(c2)CCC3)cc1OC (stereo not drawn) , what is its reported chromatographic logP? 3.13

* * *

Measured chromatographic logP, listed per entry for reference.
- test.details: logP determined by HPLC
- measurement.parameters: E/Z mixture, second of two values (Z position)

| compound | chromatographic logP |
| --- | --- |
| CCON=C(C(=O)NC(C)Cc1ccc(OCC)c(OC)c1)c1ccc(Br)cc1 (centres unmarked) [Example 9] | 4.01 |
| CCON=C(C(=O)NC(C)Cc1ccc(OCC)c(OC)c1)c1ccc(Cl)cc1 (centres unmarked) [Example 11] | 3.91 |

chromatographic logP lookup needed for CCON=C(C(=O)NC(C)Cc1ccc(OCC)c(OC)c1)c1ccc2c(c1)CCCC2 (centres unmarked) [Example 8] , thanks. 4.41

Request the reported chromatographic logP associated with CCON=C(C(=O)NC(C)Cc1ccc(OCC)c(OC)c1)c1ccc2c(c1)CCC2 (centres unmarked) [Example 16] 4.1

What value of chromatographic logP has been recorded for this entry: CCOc1ccc(CC(C)NC(=O)C(=NOC)c2ccc3c(c2)CCCC3)cc1OC (centres unmarked) [Example 1] 4.04

* * *

This listing pairs compounds with measured chromatographic logP.
- test.details: logP determined by HPLC
- measurement.parameters: E/Z mixture, (E position)
Give only the figure.

Use the examples below as a reference point.
| compound | chromatographic logP |
| --- | --- |
| CCON=C(C(=O)NC(C)Cc1ccc(OCC)c(OC)c1)c1ccc(Br)cc1 (centres unmarked) [Example 9] | 3.69 |
| CCON=C(C(=O)NC(C)Cc1ccc(OCC)c(OC)c1)c1ccc(CC)cc1 (centres unmarked) [Example 15] | 3.73 |
| CCON=C(C(=O)NC(C)Cc1ccc(OCC)c(OC)c1)c1ccc(Cl)cc1 (centres unmarked) [Example 11] | 3.59 |
| CCON=C(C(=O)NC(C)Cc1ccc(OCC)c(OC)c1)c1ccc(C)cc1 (centres unmarked) [Example 14] | 3.38 |

Look up chromatographic logP: CCOc1ccc(CC(C)NC(=O)C(=NOC)c2ccc3c(c2)CCCC3)cc1OC (centres unmarked) [Example 1] 3.72

* * *

- test.details: physchem
- measurement.parameters: hplc
measure: chromatographic logP
Respond with the number and no other words.

| compound | measure | test.result |
| --- | --- | --- |
| CCOc1ccc(CC(C)NC(=O)/C(=N/OC)c2ccc(Br)cc2)cc1OC (stereo not drawn) | chromatographic logP | 3.34 |
| CCOc1ccc(CC(C)NC(=O)C(=NOC)c2ccc(Br)cc2)cc1OC (stereo not drawn) | chromatographic logP | 3.34 |
| CCOc1ccc(CC(C)NC(=O)/C(=N\OC)c2ccc(Br)cc2)cc1OC (stereo not drawn) | chromatographic logP | 3.64 |

Entry under review: CCOc1ccc(CC(C)NC(=O)/C(=N/OC)c2ccc(Cl)cc2)cc1OC (stereo not drawn) . Reported chromatographic logP? 3.26

chromatographic logP for CCOc1ccc(CC(C)NC(=O)C(=NOC)c2ccc(Cl)cc2)cc1OC (stereo not drawn) ? 3.26

Give the measured chromatographic logP of CCOc1ccc(CC(C)NC(=O)C(=NOC)c2ccc(C)cc2)cc1OC (stereo not drawn) . 3.04

* * *

- test.details: logP determined by HPLC
- measurement.parameters: E/Z mixture, second of two values (Z position)
measure: chromatographic logP

Completed entries (count: 2):
| molecule | test.result |
| --- | --- |
| CCON=C(C(=O)NC(C)Cc1ccc(OCC)c(OC)c1)c1ccc(CC)cc1 (stereo not drawn) | 4.05 |
| CCON=C(C(=O)NC(C)Cc1ccc(OCC)c(OC)c1)c1ccc(C)cc1 (stereo not drawn) | 3.71 |

Alright, here's another molecule for you.
I am curious: what chromatographic logP value has been reported for CCOc1ccc(CC(C)NC(=O)C(=NOC)c2ccc3c(c2)CCC3)cc1OC (stereo not drawn) ? 3.44

Hello, the source for this data is patent US6313173A, in case you need it.
